# test_description: Total clearance in iv dosed dog
# Format: ADME, organism-based, Canis lupus familiaris
# experimental_conditions: in vivo
hey, just use met if measured clearance is less than 8 mL/min/kg, otherwise not met

INSERT INTO measurements (line_notation, class_assignment) VALUES
  ('CS(=O)(=O)NC(=O)c1ccc(-c2ccc(C[C@@H](CO)NC[C@H](O)c3ccccc3)cc2)cc1OC1CCCCC1', 'met'),
  ('C[C@H](NCCc1ccc(-c2ccc(C(=O)NS(C)(=O)=O)c(OC3CCCCC3)c2)cc1)[C@H](O)c1ccc(O)cc1', 'not met'),
  ('CC(C)Oc1cc(-c2ccc(CCNC[C@H](O)c3cccc(N)c3)cc2)ccc1C(=O)NS(C)(=O)=O', 'met');

Then this compound:
Query: Dear colleague, could you confirm whether clearance of CC(=O)Nc1ccc([C@@H](O)CNCCc2ccc(-c3ccc(C(=O)NS(C)(=O)=O)c(OC4CCCCC4)c3)cc2)cn1 falls below 8 mL/min/kg? Thanks.
Reply: not met

---

# target_or_system: Beta-3 adrenergic receptor (Canis lupus familiaris)
# Sequence (O02662 whole entry): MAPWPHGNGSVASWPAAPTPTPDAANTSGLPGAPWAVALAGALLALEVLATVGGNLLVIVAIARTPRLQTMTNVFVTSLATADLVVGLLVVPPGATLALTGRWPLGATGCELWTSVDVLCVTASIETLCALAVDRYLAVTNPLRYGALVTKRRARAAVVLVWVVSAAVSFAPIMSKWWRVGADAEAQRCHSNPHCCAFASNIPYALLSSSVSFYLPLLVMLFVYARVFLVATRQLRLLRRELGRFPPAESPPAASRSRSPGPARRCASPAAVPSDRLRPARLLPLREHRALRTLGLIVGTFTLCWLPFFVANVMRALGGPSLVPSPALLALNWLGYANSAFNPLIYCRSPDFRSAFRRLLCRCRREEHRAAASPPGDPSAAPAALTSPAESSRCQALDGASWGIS
# test_description: Agonist activity at dog recombinant adrenergic beta3 receptor expressed in CHO cells assessed as stimulation of cAMP level after 1 hr by enzyme immunoassay
attribute_measured: EC50 (nM)
Express your answer in nM, writing the number without its unit.

Measured on Beta-3 adrenergic receptor (Canis lupus familiaris), CC(C)Oc1cc(-c2ccc(CCN[C@@H](C)[C@H](O)c3ccc(O)cc3)cc2)ccc1C(=O)NS(C)(=O)=O has a documented EC50 of 1

---

# target_or_system: Beta-3 adrenergic receptor (Homo sapiens)
# Sequence (P13945 whole entry): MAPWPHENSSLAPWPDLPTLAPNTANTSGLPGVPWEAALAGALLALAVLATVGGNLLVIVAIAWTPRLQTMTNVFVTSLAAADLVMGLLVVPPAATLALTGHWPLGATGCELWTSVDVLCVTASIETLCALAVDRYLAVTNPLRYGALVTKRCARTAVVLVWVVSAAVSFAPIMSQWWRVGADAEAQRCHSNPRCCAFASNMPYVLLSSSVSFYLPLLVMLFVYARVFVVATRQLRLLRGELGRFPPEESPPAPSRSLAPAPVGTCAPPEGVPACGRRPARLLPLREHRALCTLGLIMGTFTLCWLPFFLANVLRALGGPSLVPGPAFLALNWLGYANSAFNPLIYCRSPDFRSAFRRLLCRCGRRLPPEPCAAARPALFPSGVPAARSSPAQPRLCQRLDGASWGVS
# test_description: Agonist activity at human recombinant adrenergic beta3 receptor expressed in CHO cells assessed as stimulation of cAMP level after 1 hr by enzyme immunoassay
attribute_measured: log10 of EC50 (log10 of the value in nM)
Transform log10 | Measure EC50 | Unit nM

INSERT INTO measurements (line_notation, attribute_measured, numeric_value) VALUES
  ('CS(=O)(=O)NC(=O)c1ccc(-c2ccc(C[C@@H](CO)NC[C@H](O)c3ccccc3)cc2)cc1OC1CCCCC1', 'log10 of EC50', -0.09);

get_value(item= COc1ccc([C@@H](O)[C@H](C)NCCc2ccc(-c3ccc(C(=O)NS(C)(=O)=O)c(OC4CCCCC4)c3)cc2)cc1 , readout=log10 of EC50) returns 1.45

response.value for CC(=O)Nc1ccc([C@@H](O)CNCCc2ccc(-c3ccc(C(=O)NS(C)(=O)=O)c(OC4CCCCC4)c3)cc2)cn1 (field: log10 of EC50) = -0.64

Item: CC(C)Oc1cc(-c2ccc(CCNC[C@H](O)c3cccc(N)c3)cc2)ccc1C(=O)NS(C)(=O)=O | log10 of EC50: 0.78

---

# target_or_system: Beta-3 adrenergic receptor (Homo sapiens)
# test_description: Agonist activity at human recombinant adrenergic beta3 receptor expressed in CHO cells assessed as stimulation of cAMP level after 1 hr by enzyme immunoassay
// reported EC50 for each item listed
Field: numeric (nM). Do not append units.

INSERT INTO results (line_notation, measurement_unit, numeric_value) VALUES
  ('CC(C)Oc1cc(-c2ccc(CCNC[C@H](O)c3ccc(O)c(NS(C)(=O)=O)c3)cc2)ccc1C(=O)NS(C)(=O)=O', 'nM', 0.26);

// field: EC50; key: CC(C)Cc1cc(-c2ccc(C[C@@H](C)NC[C@H](O)c3ccccc3)cc2)ccc1C(=O)NS(C)(=O)=O ; value = 0.1

Looking up CC(C)Oc1cc(-c2ccc(CCN[C@@H](C)[C@H](O)c3ccc(O)cc3)cc2)ccc1C(=O)NS(C)(=O)=O , I found its EC50 recorded as 0.16

---

# target_or_system: Beta-3 adrenergic receptor (Homo sapiens)
# test_description: Agonist activity at human recombinant adrenergic beta3 receptor expressed in CHO cells assessed as stimulation of cAMP level after 1 hr by enzyme immunoassay
This section presents compounds with their documented EC50 values.
State the value with its unit after it.

INSERT INTO assay_data (line_notation, result) VALUES
  ('CS(=O)(=O)NC(=O)c1ccc(-c2ccc(CCNC[C@H](O)c3cccc(N)c3)cc2)cc1OC1CCCCC1', '1.2 nM'),
  ('C[C@H](NCCc1ccc(-c2ccc(C(=O)NS(C)(=O)=O)c(OC3CCCCC3)c2)cc1)[C@H](O)c1ccc(O)cc1', '0.35 nM');

Entry CC(C)Oc1cc(-c2ccc(CCN[C@@H](C)[C@H](O)c3cccc(O)c3)cc2)ccc1C(=O)NS(C)(=O)=O , EC50 reported as 0.044 nM
